The measured values listed here are drawn from BindingDB's records for PubMed 20126400.

// Muscarinic acetylcholine receptor M2 (Homo sapiens) Ki records

**Query** // lookup Ki for CCCN(CCC)CCc1c[nH]c2ccccc12 [dpt]
**Result** > 10 µM

**Query** // lookup Ki for COc1ccc2[nH]cc(CCN(C)C(C)C)c2c1 [5-meo-mipt]
**Result** > 10 µM

**Query** // lookup Ki for COc1ccc2[nH]cc(CCN(C(C)C)C(C)C)c2c1 [5-meo-dipt]
**Result** > 10 µM

###

- TESTED TARGET: 5-hydroxytryptamine receptor 1E (Homo sapiens, UniProt P28566)
- Sequence (P28566 whole entry): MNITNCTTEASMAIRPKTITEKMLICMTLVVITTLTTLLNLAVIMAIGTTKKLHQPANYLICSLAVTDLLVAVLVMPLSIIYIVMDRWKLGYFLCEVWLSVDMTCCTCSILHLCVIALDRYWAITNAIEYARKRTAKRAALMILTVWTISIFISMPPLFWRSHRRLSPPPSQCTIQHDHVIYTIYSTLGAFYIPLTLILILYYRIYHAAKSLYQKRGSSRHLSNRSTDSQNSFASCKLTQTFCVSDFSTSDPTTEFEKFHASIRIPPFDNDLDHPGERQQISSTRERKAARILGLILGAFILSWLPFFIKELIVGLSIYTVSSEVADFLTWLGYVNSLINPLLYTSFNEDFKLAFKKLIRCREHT
REPORTED METRIC: Ki

COc1ccc2[nH]cc(CCN(C)C(C)C)c2c1
3.5 µM
COC(=O)[C@@H]1C[C@H](OC(C)=O)C(=O)[C@H]2[C@@]1(C)CC[C@H]1C(=O)O[C@H](c3ccoc3)C[C@]21C
> 10 µM
CC(C)N(CCc1c[nH]c2ccccc12)C(C)C
> 10 µM

**Query** Can you look up Ki on 5-hydroxytryptamine receptor 1E (Homo sapiens, UniProt P28566) for CCOc1cc(OC)c(CC(C)N)cc1OC (configuration not stated) ?
**Result** > 10 µM

**Query** Can you look up Ki on 5-hydroxytryptamine receptor 1E (Homo sapiens, UniProt P28566) for COc1cc(CC(C)N)cc(OC)c1OC (configuration not stated) ?
**Result** 3.37 µM
